B1: CPEB3 Ribozyme (parent)
chain: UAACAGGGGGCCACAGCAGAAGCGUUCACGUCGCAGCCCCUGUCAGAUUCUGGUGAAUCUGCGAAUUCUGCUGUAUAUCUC

Variants of: B1
Experiment: self-cleavage, relative activity (ratio to wild type); higher = more cleavage; in vitro, sequencing
# cutoff 0.3 applies to self-cleavage; >= gives true (1), < gives false (0)

{"variantDescriptor": "U72G G73A", "categoryLabel": "true (1)"}
{"variantDescriptor": "U54C", "categoryLabel": "true (1)"}
{"variantDescriptor": "C37U", "categoryLabel": "true (1)"}
{"variantDescriptor": "C27U U74A", "categoryLabel": "true (1)"}

Hi team, for G7A A20G , is the recorded self-cleavage at or above 0.3? false (0)

Cool, now A64G G73U true (1)

Cool, now C17G U25G false (0)

Cool, now C29U G30U false (0)

Cool, now C38A A64C false (0)

Cool, now C50A U51A true (1)

Cool, now G30C U41C false (0)
